- Tgt: SARS-CoV-2 RBD-mFc (SARS-CoV-2, UniProt P0DTC2 319-541)
- Experiment description: Octet BLI, IgG, avid
Readout label: Kd (nM)
Write the number in nM without appending the unit.

Please review the following examples before continuing.
Binder	Readout label	Test result
A-8 (antibody, V domains shown) VH: EVQLLESGGGLVQPGGSLRLSCAASGFTFSSYAMSWVRQAPGKGLEWVSAISGSGNSTSYADSVKGRFTLSRDNSKNTLYLQMNSLRAEDTAIYYCAKGLGTRSFNWGAFDYWGQGTLVTVSS VL: DIRVTQSPSSLSASVGDRVTITCRASQGISYSLAWYQQKPGKAPKLLLYAASNLESGVPSRFSGSGSGTDYTLTVSSLQPEDFATYYCQQYYSTPWTFGQGTKVEIK	Kd	0.106
A-9 (antibody, V domains shown) VH: EVQLVESGGGLVKPGRSLRLSCAASGFTFADYAMSWFRQAPGKGLEWVGFIRSKPYGGTTEYAASVKGRFTISRDDSKSIAYLQMNSLKTEDTAVYYCSRDPWYCSGGDCYAVTGSWFDPWGQGTLVTVSS VL: DIVLTQSPSSLSASVGDRVTITCQASQDIKKYLNWYQQKPGKAPKLLIYDVSNLETGVPSRFSGSGSGTDFTFTISSLQPEDVAIYYCQQYDNLPQTFGQGTKVDIK	Kd	0.147
A-5 (antibody, V domains shown) VH: QVQLVESGGGLIQPGESLRLSCAASEFIVSRNYMSWVRQAPGKGLEWVSVIYSGGNTYYADSVKGRFTISRDNSKNTLYLQMNSLRAEDTAVYYCARDLRGPGCFDFWGQGTTVTVSS VL: DIQVTQSPSSLSASVGDRVTITCQASQDISNFLNWYQQKPGKAPKLLIYDASNLETGVPSRFSASGSGTEFTFTISSLQPEDIATYYCQQYDNLRVTFGGGTKLEIK	Kd	0.179

Problem: I have this binder here, A-7 (antibody, V domains shown) VH: EVQLVESGAEVRKPGASVKVSCKASGYTFTFYYIHWVRQAPGQGLEWMGWISPISGATNYAQTFQGRVTMTRDTSITTAYMELSSLTSDDTAVYYCAREKYYDSSGSSDYWGQGTLVTVSS VL: QPVLTQPPSVSAAPGQNVTIFCSGSSSNIGNNYVSWYQQLPGPAPKLLIYENNKRPSGIPDRFSGSKSGTSATLGITGLQTGDEADYYCGTWESSLSAPRVFGSGTKLTVL , and I need its recorded Kd.
Result: 0.0941

Problem: I have this binder here, A-14 (antibody, V domains shown) VH: EVQLVESGGGVVQPGRSLRLSCAASGFTFSTYGMHWVRQAPGKGLEWVAVIWYDGSNKYYADSVKGRFTISRDNSKNTLYLQMNSLRAEDTAVYYCARSVDGDYLEYFQHWGQGTLVTVSS VL: QPVLTQPRSVSGSPGQSVTISCTGTSSDVGGYNYVSWYQQHPGKAPKLMIYDVSKRPSGVPDRFSGSKSGNTASLTISGLQAEDEADYYCCSYAGGYTNYVFGTGTKLTVL , and I need its recorded Kd.
Result: 0.158
